The measured values listed here are drawn from patent US11286268B1.

Form field: pIC50 (one value per entry).
# TARGET OR TEST SYSTEM: recombinant eIF4E (Homo sapiens (Human))
# EXPERIMENTAL PROTOCOL: Fluorescence polarization competition assay for eIF4E binding potency
# DETAILS: fluorescence polarization competition, 75 nM recombinant eIF4E, 20 nM EDA-m7GDP-ATTO-550; IC50 class; read-out: elF4E FP
pIC50: −log10 of the molar value.

{"columns": ["COMPOUND", "pIC50"],
 "data": [
  ["CC(=O)N(C)c1ncc2nc(C)n(CCOc3ccc(Cl)cc3-c3cc(C)nc4c(C(=O)O)csc34)c(=O)c2c1C#N [compound 1053]", "> 7.30"],
  ["Cc1nc2cnc(S(=O)(=O)N3CCN(C)CC3)c(C#N)c2c(=O)n1CCOc1ccc(Cl)cc1-c1ccnc2c(C(=O)O)csc12 [compound 821]", "> 7.30"],
  ["Cc1cc(-c2cc(Cl)ccc2OCCn2c(C)nc3cc(C(F)(F)F)c(-c4ccnc(C)n4)nc3c2=O)c2scc(C(=O)O)c2n1 [compound 769]", "> 7.30"]
]}

Prompt: Consider the compound Cc1cc(-c2cc(Cl)ccc2C#CCn2c(C)nc3cnc(C#N)cc3c2=O)c2scc(C(=O)O)c2n1 [compound 599] and give its recorded pIC50.
Completion: 6.00 to 7.30

Prompt: Consider the compound Cc1cc(-c2cc(Cl)ccc2OCCn2c(C)nc3cnc(Oc4ccccc4)c(C#N)c3c2=O)c2scc(C(=O)O)c2n1 [compound 1038] and give its recorded pIC50.
Completion: > 7.30

Prompt: Consider the compound Cc1cc(-c2cc(Cl)ccc2OCCn2c(C)nc3cc(Cl)c(-c4ccc(N(C)C)nc4)c(C#N)c3c2=O)c2scc(C(=O)O)c2n1 [compound 397] and give its recorded pIC50.
Completion: > 7.30

---

# TARGET OR TEST SYSTEM: recombinant eIF4E (Homo sapiens (Human))
# EXPERIMENTAL PROTOCOL: Fluorescence polarization competition assay for eIF4E binding potency
# DETAILS: inhibition of eIF4E/EDA-m7GDP-ATTO-550 binding by 50%; Table 4B calculated values; read-out: IC50
pIC50: −log10 of the molar value.
MEASURED METRIC: pIC50

{"columns": ["COMPOUND", "pIC50"],
 "data": [
  ["Cc1nc2cc(C(F)(F)F)cc(C#N)c2c(=O)n1CCOc1ccc(Cl)cc1-c1ccnc2c(C(=O)O)c(C(C)C)sc12 [compound 667]", 7.33]
]}

a. Cc1nc2cc(C(F)(F)F)cc(C#N)c2c(=O)n1CCOc1ccc(Cl)cc1-c1cccc2c(C(=O)O)c[nH]c12 [compound 322]
b. COc1c(Cl)cc(-c2cc(Cl)ccc2OCCn2cnc3cnc(C#N)cc3c2=O)cc1C(=O)O [compound 108]
c. Cc1nc2cc(F)c(CN(C)C)c(C#N)c2c(=O)n1CCOc1ccc(Cl)cc1-c1ccnc2c(C(=O)O)csc12 [compound 311]
Prompt: Sort entries by pIC50 from minimum to maximum value. Write the labels out in the order the request specifies.
Completion: b, a, c

---

# TARGET OR TEST SYSTEM: recombinant eIF4E (Homo sapiens (Human))
# EXPERIMENTAL PROTOCOL: Fluorescence polarization competition assay for eIF4E binding potency
# DETAILS: inhibition of eIF4E/EDA-m7GDP-ATTO-550 binding; calculated IC50 values, Table 4B; read-out: IC50
MEASURED METRIC: IC50 (nM)

{"columns": ["COMPOUND", "MEASURE UNIT", "IC50"],
 "data": [
  ["CCc1cc(-c2cc(Cl)ccc2OCCn2c(C)nc3cnc(N4CCC(O)C4)c(C#N)c3c2=O)c2scc(C(=O)O)c2n1 (stereo not drawn)", "nM", 6.32],
  ["Cc1nc2cnc(N(C)C3CCN([C@H]4C[C@@H](OC(F)(F)F)C4)CC3)c(C#N)c2c(=O)n1CC#Cc1ccc(Cl)cc1-c1ccnc2c(C(=O)NS(=O)(=O)c3ccccn3)csc12", "nM", 3.85]
]}

P. Cc1nc2c(C#N)nc(C#N)cc2c(=O)n1CCOc1ccc(Cl)cc1-c1cccc(C(=O)O)c1
Q. Cc1nc2cnc(N(C)C3CCN(CCC(C)(F)F)CC3)c(C#N)c2c(=O)n1CC#Cc1ccc(Cl)cc1-c1ccnc2c(C(=O)O)csc12
Prompt: For the two items P and Q , which reports the higher IC50 value? Use the label to indicate which entry you chose.
Completion: P

---

# TARGET OR TEST SYSTEM: recombinant eIF4E (Homo sapiens (Human))
# EXPERIMENTAL PROTOCOL: Fluorescence polarization competition assay for eIF4E binding potency
# DETAILS: fluorescence polarization competition, 75 nM recombinant eIF4E, 20 nM EDA-m7GDP-ATTO-550; IC50 class; read-out: elF4E FP
pIC50: −log10 of the molar value.
MEASURED METRIC: pIC50

Here are 2 compounds together with their reported answers.
{"columns": ["SMILES REPR", "TARGET OR TEST SYSTEM", "pIC50"],
 "data": [
  ["Cc1nc2cnc(C3CCN(CC(F)(F)F)CC3)c(C#N)c2c(=O)n1CC#Cc1ccc(Cl)cc1-c1ccnc2c(C(=O)O)csc12", "recombinant eIF4E (Homo sapiens (Human))", "> 7.30"],
  ["Cc1nc2cnc(N(C)C3CCN(CC4(F)CC4)CC3)c(C#N)c2c(=O)n1CC#Cc1ccc(Cl)cc1-c1ccnc2c(C(=O)O)csc12", "recombinant eIF4E (Homo sapiens (Human))", "> 7.30"]
]}

// next item, pIC50 requested
Prompt: Consider the compound Cc1cc(-c2cc(Cl)ccc2OCCn2c(C)nc3cnc(C4CC4)c(C#N)c3c2=O)c2scc(C(=O)NS(C)(=O)=O)c2n1 and give its recorded pIC50.
Completion: > 7.30

---

# TARGET OR TEST SYSTEM: recombinant eIF4E (Homo sapiens (Human), UniProt P06730)
# Sequence (P06730 whole entry): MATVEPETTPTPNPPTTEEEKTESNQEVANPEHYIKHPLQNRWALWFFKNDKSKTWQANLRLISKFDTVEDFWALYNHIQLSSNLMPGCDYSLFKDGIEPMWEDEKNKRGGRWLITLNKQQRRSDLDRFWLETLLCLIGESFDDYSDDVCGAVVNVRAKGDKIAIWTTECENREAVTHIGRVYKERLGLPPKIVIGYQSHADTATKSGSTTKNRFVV
# EXPERIMENTAL PROTOCOL: Fluorescence polarization competition assay for eIF4E binding potency
# DETAILS: inhibition of eIF4E/EDA-m7GDP-ATTO-550 binding by 50%; Table 4B calculated values; read-out: IC50
# Method: Compounds were screened for eIF4E binding potency using a fluorescence polarization competition assay. All binding reactions were performed in fluorescence polarization buffer (FPB) containing 20 mM Tris pH 7.5, 100 mM NaCl, 1 mM DTT, and 0.02% Tween-20. Final binding reactions contained 75 nM recombinant eIF4E (Beryllium, custom order), 20 nM EDA-m^7GDP-ATTO-550 (Jena Bioscience, NU-827-550) and varying concentrations of the inhibitory compound of interest. […]
pIC50: −log10 of the molar value.
MEASURED METRIC: pIC50

Here are 2 compounds together with their reported answers.
{"columns": ["COMPOUND", "TARGET OR TEST SYSTEM", "MEASURED METRIC", "RECORDED MEASUREMENT"],
 "data": [
  ["Cc1nc2cc(C#N)cc(C#N)c2c(=O)n1CCOc1ccc(Cl)cc1-c1ccnc2c(C(=O)O)csc12 [compound 212]", "recombinant eIF4E (Homo sapiens (Human), UniProt P06730)", "pIC50", 7.40],
  ["Cc1cc(-c2c(C(F)(F)F)cc3nc(C)n(CCOc4ccc(Cl)cc4-c4cc(C)nc5c(C(=O)O)csc45)c(=O)c3c2C#N)nc(C)n1 [compound 963]", "recombinant eIF4E (Homo sapiens (Human), UniProt P06730)", "pIC50", 8.11]
]}

P. CCN(Cc1ccccc1)S(=O)(=O)c1ccc2nc(C)n(CCOc3ccc(Cl)cc3-c3ccnc4c(C(=O)O)csc34)c(=O)c2c1C#N [compound 253]
Q. Cc1nc2cc(F)c(F)c(C#N)c2c(=O)n1CCOc1ccc(Cl)cc1-c1ccnc2c(-c3nnn[nH]3)csc12 [compound 306]
Prompt: Pick one: P or Q . Which one has the lower reported pIC50? Use the label to indicate which entry you chose.
Completion: Q

---

# TARGET OR TEST SYSTEM: recombinant eIF4E (Homo sapiens (Human))
# EXPERIMENTAL PROTOCOL: Fluorescence polarization competition assay for eIF4E binding potency
# DETAILS: inhibition of eIF4E/EDA-m7GDP-ATTO-550 binding by 50%; Table 4B calculated values; read-out: IC50
# Procedure: Compounds were screened for eIF4E binding potency using a fluorescence polarization competition assay. All binding reactions were performed in fluorescence polarization buffer (FPB) containing 20 mM Tris pH 7.5, 100 mM NaCl, 1 mM DTT, and 0.02% Tween-20. Final binding reactions contained 75 nM recombinant eIF4E (Beryllium, custom order), 20 nM EDA-m^7GDP-ATTO-550 (Jena Bioscience, NU-827-550) and varying concentrations of the inhibitory compound of interest. […]
MEASURED METRIC: IC50 (nM)

{"columns": ["MOLECULE", "TARGET OR TEST SYSTEM", "RECORDED MEASUREMENT"],
 "data": [
  ["Cc1cc(-c2cc(Cl)ccc2OCCn2c(C)nc3cc(C(F)(F)F)ccc3c2=O)c2scc(C(=O)O)c2n1 [351b]", "recombinant eIF4E (Homo sapiens (Human))", 93.6],
  ["Cc1nc2cc(OC(F)F)c(C(F)F)c(C#N)c2c(=O)n1CCOc1ccc(Cl)cc1-c1ccnc2c(C(=O)O)csc12", "recombinant eIF4E (Homo sapiens (Human))", 47.2],
  ["Cc1cc(-c2cc(Cl)ccc2OCCn2c(C)nc3cc(Cl)c(-c4ncco4)c(C#N)c3c2=O)c2scc(C(=O)O)c2n1", "recombinant eIF4E (Homo sapiens (Human))", 18.2]
]}

a. Cc1sc2c(-c3cc(Cl)ccc3OCCn3c(C)nc4cc(C(F)(F)F)c(CN(C)C)c(C#N)c4c3=O)ccnc2c1C(=O)O
b. Cc1cc(-c2cc(Cl)ccc2OCCn2c(C)nc3cc(C(F)(F)F)c(N4CC(F)(F)C4)c(C#N)c3c2=O)c2scc(C(=O)O)c2n1
Prompt: Pick one: a or b . Which one has the lower reported IC50? Use the label to indicate which entry you chose.
Completion: b
(b: 13.5 nM, a: 22.7 nM)

P. CCc1cc(-c2cc(Cl)ccc2OCCn2c(C)nc3cc(C(F)(F)F)c(CN4CCN(C)CC4)c(C#N)c3c2=O)c2scc(C(=O)O)c2n1
Q. Cc1nc2cc(C#N)c(CN(C)C)c(C#N)c2c(=O)n1CCOc1ccc(Cl)cc1-c1ccnc2c(C(=O)O)csc12
R. COc1cc(-c2cc(Cl)ccc2OCCn2cnc3cnc(C#N)cc3c2=O)cc(C(=O)O)n1
S. Cc1nc2c(F)c(Cl)c(C(F)F)c(C#N)c2c(=O)n1CCOc1ccc(Cl)cc1-c1ccnc2c(C(=O)O)csc12
Prompt: Arrange the 4 molecules from largest to smallest IC50. Write the labels out in the order the request specifies.
Completion: R, Q, S, P
